Target: Pdr3 (UniProt P33200)
Sequence: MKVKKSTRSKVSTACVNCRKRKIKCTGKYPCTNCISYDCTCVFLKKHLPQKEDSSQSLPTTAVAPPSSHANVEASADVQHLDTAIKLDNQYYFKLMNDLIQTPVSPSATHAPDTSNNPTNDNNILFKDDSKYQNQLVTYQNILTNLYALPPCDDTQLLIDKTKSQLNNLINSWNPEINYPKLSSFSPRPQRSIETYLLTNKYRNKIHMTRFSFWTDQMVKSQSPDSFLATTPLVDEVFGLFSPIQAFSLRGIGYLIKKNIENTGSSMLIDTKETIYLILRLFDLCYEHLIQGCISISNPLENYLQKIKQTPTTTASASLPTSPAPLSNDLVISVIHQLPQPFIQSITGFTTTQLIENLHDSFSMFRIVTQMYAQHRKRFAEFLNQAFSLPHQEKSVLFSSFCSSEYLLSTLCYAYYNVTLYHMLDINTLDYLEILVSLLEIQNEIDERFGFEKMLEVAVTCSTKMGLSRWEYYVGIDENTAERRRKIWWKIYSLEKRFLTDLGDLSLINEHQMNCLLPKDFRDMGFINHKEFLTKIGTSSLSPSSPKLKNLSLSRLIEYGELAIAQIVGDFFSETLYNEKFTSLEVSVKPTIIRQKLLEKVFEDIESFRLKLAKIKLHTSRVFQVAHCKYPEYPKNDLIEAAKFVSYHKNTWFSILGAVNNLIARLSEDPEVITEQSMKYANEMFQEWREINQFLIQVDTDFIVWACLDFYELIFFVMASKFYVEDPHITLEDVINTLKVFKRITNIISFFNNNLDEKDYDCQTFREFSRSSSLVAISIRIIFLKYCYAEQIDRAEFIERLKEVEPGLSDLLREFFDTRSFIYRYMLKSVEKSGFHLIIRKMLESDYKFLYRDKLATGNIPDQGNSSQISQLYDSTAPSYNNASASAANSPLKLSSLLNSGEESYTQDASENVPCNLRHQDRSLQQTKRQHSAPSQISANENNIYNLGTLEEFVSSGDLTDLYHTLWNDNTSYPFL
Experiment: PBM E-score (8-mer binding enrichment) (E-score (-0.5 to 0.5)); higher = stronger / more preferred TF binding
Conditions: protein concentration: 200 nM; construct: GST-full length
In all, about 33,000 sequences were measured (“E-score (-0.5 to 0.5)”: median about -0.035, highest 2% from about 0.35 on). The list comes from a sample in which the highest values are over-represented; it also holds close analogues and randomly drawn sequences.
Measured PBM E-score by item
Respond numerically, and do not add a unit to the figure.

Examples from the recorded data:
ACTCCGTC; 0.206
ACATATCT; 0.0252
ATTCCGTC; 0.42
GGGAATCA; 0.0382
CTAACGGC; -0.00464
ATAACGGG; 0.0143
AGCGAAGG; -0.0572
GTAACGGA; 0.397

Give the measured PBM E-score of AGGATCTA . -0.352

Reported PBM E-score, sequence GTACCGTA : ____ 0.029

Quick one: PBM E-score of CCGAATCC ? 0.336

====

Target: Pdr3 (UniProt P33200)
Sequence: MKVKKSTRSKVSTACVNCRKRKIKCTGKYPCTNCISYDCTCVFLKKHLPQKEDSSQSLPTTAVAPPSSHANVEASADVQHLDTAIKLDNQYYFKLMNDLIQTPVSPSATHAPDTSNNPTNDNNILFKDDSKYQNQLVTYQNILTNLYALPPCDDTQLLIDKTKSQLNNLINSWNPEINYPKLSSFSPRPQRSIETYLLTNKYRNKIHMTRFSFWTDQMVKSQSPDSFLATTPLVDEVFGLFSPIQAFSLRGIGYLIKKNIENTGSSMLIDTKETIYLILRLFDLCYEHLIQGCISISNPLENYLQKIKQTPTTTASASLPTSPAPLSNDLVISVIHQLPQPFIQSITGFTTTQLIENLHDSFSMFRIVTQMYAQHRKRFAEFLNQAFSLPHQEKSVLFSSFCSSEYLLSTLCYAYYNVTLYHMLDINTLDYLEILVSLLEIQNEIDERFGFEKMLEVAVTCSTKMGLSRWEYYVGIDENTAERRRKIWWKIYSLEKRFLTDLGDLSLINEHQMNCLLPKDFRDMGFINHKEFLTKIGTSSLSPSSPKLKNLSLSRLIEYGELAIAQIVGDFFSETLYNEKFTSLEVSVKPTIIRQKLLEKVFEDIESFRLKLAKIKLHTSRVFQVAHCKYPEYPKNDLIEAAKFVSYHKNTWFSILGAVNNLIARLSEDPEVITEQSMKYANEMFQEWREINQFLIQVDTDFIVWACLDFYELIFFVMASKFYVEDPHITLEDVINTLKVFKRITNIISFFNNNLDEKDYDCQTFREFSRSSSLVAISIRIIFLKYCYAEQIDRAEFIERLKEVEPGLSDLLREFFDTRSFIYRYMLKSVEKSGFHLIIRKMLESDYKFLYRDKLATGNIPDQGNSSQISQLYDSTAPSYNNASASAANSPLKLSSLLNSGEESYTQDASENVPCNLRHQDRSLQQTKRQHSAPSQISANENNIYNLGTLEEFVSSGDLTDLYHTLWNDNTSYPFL
Experiment: PBM E-score (8-mer binding enrichment) (E-score (-0.5 to 0.5)); higher = stronger / more preferred TF binding
Conditions: protein concentration: 200 nM; construct: GST-full length
Over roughly 33,000 sequences, “E-score (-0.5 to 0.5)” has its median near -0.035; the highest 2% begin near 0.35. This is one part of a sample in which the highest values are shown more often than they occur.
Please mark true (1) if the recorded PBM E-score is equal to or greater than -0.01, and false (0) if it falls below.

CGGGGAGA; true (1)
ATCGCGGG; true (1)
GGGCCCCA; true (1)
ACGGAGTA; true (1)
CCGGAGTA; true (1)

Dear colleague, could you confirm whether ATCTCCTA has PBM E-score at or above -0.01? false (0)

====

Target: Pdr3 (UniProt P33200)
Sequence: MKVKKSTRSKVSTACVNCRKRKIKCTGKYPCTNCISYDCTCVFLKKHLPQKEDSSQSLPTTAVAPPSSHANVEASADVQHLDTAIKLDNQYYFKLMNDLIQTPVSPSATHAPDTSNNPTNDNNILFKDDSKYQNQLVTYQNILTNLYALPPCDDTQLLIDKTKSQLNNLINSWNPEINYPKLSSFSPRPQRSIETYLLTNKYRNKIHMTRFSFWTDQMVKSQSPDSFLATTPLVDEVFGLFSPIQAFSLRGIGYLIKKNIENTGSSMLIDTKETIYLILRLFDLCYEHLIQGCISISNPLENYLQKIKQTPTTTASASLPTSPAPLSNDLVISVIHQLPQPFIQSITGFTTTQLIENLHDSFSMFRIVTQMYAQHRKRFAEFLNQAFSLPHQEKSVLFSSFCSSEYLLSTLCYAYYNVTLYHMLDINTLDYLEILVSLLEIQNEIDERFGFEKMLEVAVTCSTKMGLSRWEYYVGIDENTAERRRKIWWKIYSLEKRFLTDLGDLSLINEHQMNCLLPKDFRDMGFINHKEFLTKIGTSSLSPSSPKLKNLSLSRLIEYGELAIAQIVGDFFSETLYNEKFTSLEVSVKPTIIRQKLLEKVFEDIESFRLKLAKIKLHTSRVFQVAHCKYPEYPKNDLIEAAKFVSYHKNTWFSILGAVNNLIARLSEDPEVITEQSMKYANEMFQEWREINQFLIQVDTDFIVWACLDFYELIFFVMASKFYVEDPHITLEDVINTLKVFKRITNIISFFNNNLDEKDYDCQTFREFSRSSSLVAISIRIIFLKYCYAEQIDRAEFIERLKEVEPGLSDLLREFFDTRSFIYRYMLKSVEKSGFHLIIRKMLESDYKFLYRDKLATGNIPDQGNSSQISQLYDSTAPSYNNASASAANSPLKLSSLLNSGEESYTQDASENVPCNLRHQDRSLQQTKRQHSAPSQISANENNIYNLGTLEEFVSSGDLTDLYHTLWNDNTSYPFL
Assay: PBM E-score (8-mer binding enrichment) (E-score (-0.5 to 0.5)); higher = stronger / more preferred TF binding
Conditions: protein concentration: 200 nM; construct: GST-full length
The full ranking holds about 33,000 sequences; the median of “E-score (-0.5 to 0.5)” is about -0.035, and the highest 2% start at about 0.35. The sample as a whole holds a higher share of the highest values than the screen did.
Quick reference for PBM E-score among some sequences
Write no unit; give the number alone.

CGGATCAA; 0.356
ATTGTGGC; 0.0289
TGGATCAA; -0.168
ACTACCCT; -0.179
ACCGGCAA; 0.185
ATCAAAGA; -0.143

Which PBM E-score reading was recorded for the sequence ACACCGAC ? 0.0164

Consider the sequence ACCGGCAC and give its measured PBM E-score. 0.192

Entry AGAGAGTC : reported PBM E-score = ? -0.249

Returns the measured PBM E-score for the input sequence. Input: AGGATCAC -0.231

What does the record list as PBM E-score for CCCGGCAC ? 0.154

Query (sequence): CTTGCCTC ; field requested: PBM E-score 0.0139
